Provide the reported melting point of each item.

Q: // melting point lookup, key: `Nc1cnc2c(c1)CCc1cc(Cl)ccc1C2=C1CCN(C(=O)Cc2ccncc2)CC1`
Result: 133.2 to 133.4 °C

Q: // melting point lookup, key: `O=C1CCC(C(=O)N2CCC(=C3c4ccc(Cl)cc4CCc4cccnc43)CC2)CC1`
Result: 200 °C

Respectfully, I request melting point for each entry included below.
1. O=C(NCc1ccccc1)c1ccc2c(c1)CCc1cccnc1C2=C1CCN(C(=O)Cc2ccncc2)CC1
2. O=C(Cc1ccc[n+]([O-])c1)N1CCC(=C2c3ccc(Cl)cc3CCc3ccc[n+]([O-])c32)CC1

Result:
1: 118 to 120 °C; 2: 105 to 107 °C

====

Target: farnesyl protein transferase (FPT), partially purified from rat brain (Rattus norvegicus, UniProt Q02293+Q04631)
Construct: were partially purified from rat brain by ammonium sulfate fractionation followed by Q-Sepharose
Test: Inhibition of farnesyl protein transferase (transfer of [3H]farnesyl to Ras-CVLS)
Format: biochemical
Details: Ras-CVLS farnesylation, partially purified rat brain FPT; read-out: FPT IC50
Method: 1. In vitro enzyme assays: Inhibition of farnesyl protein transferase and geranylgeranyl protein transferase. Human farnesyl protein transferase was also expressed in E. coli, using cDNA clones encoding both the α and β subunits. […] The reaction was allowed to proceed for 30 minutes at room temperature and then stopped with 0.5 ml of 4% sodium dodecyl sulfate (SDS) followed by 0.5 ml of cold 30% trichloracetic acid (TCA). […] Percent inhibition was calculated relative to the DMSO vehicle control.
Provide the reported pIC50 of each item.
Numbers only, as −log10 of the molar value.

Q: // pIC50 lookup, key: O=C1Cc2cc(Cl)ccc2C(=C2CCN(C(=O)Cc3cccnc3)CC2)c2ncccc21 [Example 279]
Result: 5.11

Q: // pIC50 lookup, key: O=C(Cc1ccncc1)N1CCC(=C2c3cc(Cl)c(Cl)cc3CCc3cccnc32)CC1 [Example 311]
Result: 6.21

Q: // pIC50 lookup, key: CS(=O)(=O)c1ccc(C(=O)N2CCC(=C3c4ccc(Cl)cc4CCc4cccnc43)CC2)cc1 [Example 93]
Result: 5.41

Q: // pIC50 lookup, key: O=C(Nc1cccnc1)N1CCN(C2c3ccc(Cl)cc3CCc3cccnc32)CC1 (stereo not shown) [187 (6.7)]
Result: 5.87

Q: // pIC50 lookup, key: CC(=O)N1CCC(=C2c3ccc(Cl)cc3CCc3c(Cl)ccnc32)CC1 [Example 135]
Result: 5.11

Respectfully, I request pIC50 for each entry included below.
1. O=C(Nc1ccncc1)N1CCC(=C2c3ccc(Cl)cc3CCc3cccnc32)CC1 [Example 291]
2. CCNc1cnc2c(c1)CCc1cc(Cl)ccc1C2=C1CCN(C(=O)Cc2ccncc2)CC1 [Example 424]
3. O=C(CCc1ccccc1)NCC(=O)N1CCN(C2c3ccc(Cl)cc3CCc3cccnc32)CC1 (stereo not shown) [Example 217]
4. CC(C)(C(=O)N1CCC(=C2c3ccc(Cl)cc3CCc3cccnc32)CC1)c1cccnc1 [Example 300]
5. O=C(Cc1ccncc1)N1CCC(=C2c3cc(F)ccc3CCc3cccnc32)CC1 [Example 310]
6. CN1CCCC(CC(=O)N2CCC(=C3c4ccc(Cl)cc4CCc4cc(Br)cnc43)CC2)C1 (stereo not shown) [Example 400-K]
7. O=C(Cc1ccccc1O)NCC(=O)N1CCN(C2c3ccc(Cl)cc3CCc3cccnc32)CC1 (stereo not shown) [Example 212]

Result:
1: 6.06; 2: 5.89; 3: 5.17; 4: 6.02; 5: 5.44; 6: 6.68; 7: 5.10

Respectfully, I request pIC50 for each entry included below.
1. CSc1cc(CC(=O)N2CCC(=C3c4ccc(Cl)cc4CCc4cc(Br)cnc43)CC2)ccn1 [Example 410-V]
2. CC1(C2CCN(C(=O)Cc3cc[n+]([O-])cc3)CC2)c2ccc(Cl)cc2CCc2cccnc21 (stereo not shown) [Example 401-A]
3. CC(C(=O)N1CCN(C2c3ccc(Cl)cc3CCc3cccnc32)CC1)c1cccnc1 (stereo not shown) [Example 191]
4. Cn1nnnc1Sc1ccnc2c1CCc1cc(Cl)ccc1C2=C1CCN(C(=O)Cc2cccnc2)CC1 [Example 259]

Result:
5.93
5.77
5.31
5.66

Respectfully, I request pIC50 for each entry included below.
1. S=C(c1ccncc1)N1CCC(=C2c3ccc(Cl)cc3CCc3cccnc32)CC1 [Example 88]
2. CC(C)(C(=O)N1CCC(=C2c3ccc(Cl)cc3CCc3cc(Br)cnc32)CC1)c1ccc[n+]([O-])c1 [Example 360]
3. O=C(Cc1ccncc1)N1CCC(C2c3ccc(Cl)cc3C=Cc3cc(Br)cnc32)CC1 (stereo not shown) [Example 400-G]
4. O=C(Cc1ccncc1)N1CCC(=C2c3ccc(Cl)cc3CC(O)c3cccnc32)CC1 (stereo not shown) [Example 282]
5. CC(=O)N1CCC(C(=O)N2CCN(C3c4ccc(Cl)cc4CCc4cccnc43)CC2)CC1 (stereo not shown) [Example 192]

Result:
6.00
6.23
7.62
5.35
5.91
